# Protocol description: Bidirectional permeability across Caco-2 cell monolayers
# Condition parameters: human, Caco-2, pH 7.4, A–B Papp, matrix: pH 7.4 buffer
# Procedure: Bidirectional permeability was assessed across Caco-2 cell monolayers as described previously. […] Samples from the donor chamber were taken at the start and end of the experiment. […] The mass balance and apparent permeability coefficient (Papp) were calculated as previously described. […]
Parameter: Papp A→B (×10⁻⁶ cm/s)
I only need the number, in ×10⁻⁶ cm/s, no unit after it.

In [3]: df
Out[3]:
                                   molecule  parameter  unit_abbrev  value_observed
0       COc1ncnc(NS(=O)(=O)c2ccc(N)cc2)c1OC   Papp A→B   ×10⁻⁶ cm/s              15
1  Cc1cc(Nc2ccc(S(F)(F)(F)(F)F)cc2)n2nc(C(C)(F)F)nc2n1   Papp A→B   ×10⁻⁶ cm/s            52.4

Note: attention shifts to another entry.
Incoming: // returns reported Papp A→B for input C[C@H]1[C@@H](O)O[C@@H]2O[C@@]3(C)CC[C@H]4[C@H](C)CC[C@@H]1[C@@]24OO3 [Dihydroartemisinin]
Outgoing: 50

###

# Assay target: CYP3A4 (Homo sapiens)
# Sequence (P08684 whole entry): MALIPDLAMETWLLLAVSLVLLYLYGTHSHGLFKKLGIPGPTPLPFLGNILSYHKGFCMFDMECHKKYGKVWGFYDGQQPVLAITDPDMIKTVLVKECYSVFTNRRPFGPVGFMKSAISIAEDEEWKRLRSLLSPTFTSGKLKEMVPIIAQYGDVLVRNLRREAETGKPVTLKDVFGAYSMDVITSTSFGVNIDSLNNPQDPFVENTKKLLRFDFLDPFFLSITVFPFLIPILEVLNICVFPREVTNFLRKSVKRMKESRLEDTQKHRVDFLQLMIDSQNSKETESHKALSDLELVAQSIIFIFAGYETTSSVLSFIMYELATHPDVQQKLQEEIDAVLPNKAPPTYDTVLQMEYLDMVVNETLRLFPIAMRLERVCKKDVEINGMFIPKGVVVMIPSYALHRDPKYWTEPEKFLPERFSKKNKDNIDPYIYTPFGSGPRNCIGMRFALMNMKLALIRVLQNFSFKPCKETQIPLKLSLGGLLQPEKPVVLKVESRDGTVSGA
# Protocol description: Cytochrome P450 inhibition in human liver microsomes
# Condition parameters: human, microsomes, pH 7.4, CYP3A4 (midaz) % inhibition at max conc, human liver microsomes; CYP3A4 (midaz); at max conc; nmi = no measurable inhibition
Parameter: inhibition at 20 µM
Don't forget the unit after the number, please.

Incoming: // returns reported inhibition at 20 µM for input CCCCN(CCCC)CCC(O)c1cc2c(Cl)cc(Cl)cc2c2cc(C(F)(F)F)ccc12 (stereo not shown) [Halofantrine]
Outgoing: 24%

###

# Protocol description: Bidirectional permeability across Caco-2 cell monolayers
# Condition parameters: human, Caco-2, pH 7.4, Papp A – B Range, control compounds; pH 7.4 buffer as medium; range over the course of the study
Parameter: Papp A→B

>>> print(df.to_string())
                                   molecule       value_observed
0  CC(C)NCC(O)COc1cccc2ccccc12 (centres unmarked)  29 to 41 ×10⁻⁶ cm/s

Incoming: // returns reported Papp A→B for input `COC(=O)c1ccccc1-c1c2ccc(=N)cc-2oc2cc(N)ccc12`
Outgoing: 0.7 to 1.6 ×10⁻⁶ cm/s

###

Listing of entries alongside the reported B/P (whole blood to plasma partitioning ratio).
# Protocol description: Blood to plasma partitioning
# Type: in vitro ADME, human
# Condition parameters: human whole blood, 37 °C

Before answering, review these 6 worked examples.
>>> df
                                   molecule  value_observed
0  CN(C)C[c-]1cccc1CNc1ccnc2cc(Cl)ccc12.[Fe+2].c1cc[cH-]c1 (centres unmarked)      1.6 ± 0.15
1  CC(C)(C)NCc1cc(Nc2ccnc3cc(Cl)ccc23)c2c(c1O)CCCC2     1.14 ± 0.10
2       CCN(CC)CCCNc1ccnc2cc(Cl)ccc12.Cl.Cl     3.15 ± 0.20
3  CC(C)(C)NCc1cc(C(C)(C)C)cc(-c2cnc(C(F)(F)F)c(F)c2)c1O     0.54 ± 0.04
4  COc1cc(N[C@H](C)CCCN)c2nccc(C)c2c1Oc1ccc(Cl)c(Cl)c1 [NPC1161B]     1.09 ± 0.07
5  CCc1nc(N)nc(N)c1OCCCOc1ccccc1CCC(=O)O.Cl     0.56 ± 0.03

Incoming: // returns reported B/P (whole blood to plasma partitioning ratio) for input `COc1cc2[nH]c(C)c(-c3ccc(Oc4ccc(OC(F)(F)F)cc4)cc3)c(=O)c2cc1Cl`
Outgoing: 0.53 ± 0.05
